composite z-score listing for selected compounds.
- assayed_target: Follistatin-related protein 3 (Homo sapiens) (UniProt O95633)
- Sequence (O95633 whole entry, looked up): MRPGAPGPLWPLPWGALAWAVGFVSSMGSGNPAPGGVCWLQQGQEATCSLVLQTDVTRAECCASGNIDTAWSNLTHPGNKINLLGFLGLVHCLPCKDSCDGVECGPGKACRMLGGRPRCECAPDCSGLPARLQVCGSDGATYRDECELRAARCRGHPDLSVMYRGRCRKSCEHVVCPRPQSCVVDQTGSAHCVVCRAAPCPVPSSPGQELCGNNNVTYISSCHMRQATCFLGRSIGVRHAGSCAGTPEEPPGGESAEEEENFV
- assay: FSTL3 binders on small-molecule microarrays, primary screen, biochemical, small-molecule microarray, 635 nm fluorescence (AID 1105);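 note: score merges emission near 667 nm and signal to noise per printed spot across three slides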
- experimental_setup: FSTL3 binding, higher = more signal
property_measured: composite z-score

compound | property_measured | quantitative_readout
O=C1O[C@@H](c2ccccc2)[C@@H](c2ccccc2)N2[C@@H](c3ccccc3OCCO)[C@]3(C(=O)Nc4ccc(C#CC5=CCCCC5)cc43)[C@@H](C(=O)O)[C@H]12 | composite z-score | 0.87
C=C(C(=O)CC[C@H](OC(=O)c1ccccc1-c1ccccc1C(=O)O)c1ccc(CO)o1)C(C)C | composite z-score | 0.858
CO[C@@H]1COC(=O)[C@H](COCc2ccccc2)NC(=O)CC=C[C@@H](C)[C@H](OC)COC(=O)[C@H](COCc2ccccc2)NC(=O)CC=C[C@H]1C | composite z-score | 0.424
C=CCC(OC(C)=O)[C@@H]1[C@@H](N(Cc2cc3ccccc3o2)C(=O)c2ccc(C)cc2)c2cc(OCCCO)ccc2N1C(=O)c1ccc2ccccc2n1 (some centres not stated) | composite z-score | 0.0952
CO[C@H]1O[C@H](CO)[C@@H](OC(=O)Nc2ccc3c(c2)OCO3)[C@H](OC(=O)Nc2ccccc2)[C@@H]1OC(=O)Nc1ccccc1 | composite z-score | 0.479
C=CCNC(=O)[C@H]1[C@@H]2C(=O)O[C@@H](c3ccccc3)[C@@H](c3ccccc3)N2[C@@H](c2ccccc2OCCO)[C@]12C(=O)N(C(=O)OCCOC)c1ccc(C#CCNC(N)=O)cc12 | composite z-score | 0.507
C[C@]1(C(=O)NCc2ccccc2)c2ccccc2C(=O)N(Cc2cc(C(F)(F)F)cc(C(F)(F)F)c2)[C@H]1c1ccc(CO)cc1 | composite z-score | 0.439
CC(=O)NCCCC[C@@H]1NC(=O)[C@@H]2C[C@H](C(=O)NCCCCCCN(C)C)[C@H](c3ccc(O)cc3)N2C1=O | composite z-score | 1.5
CC1CC/C=C\[C@H]2OC34C=CCN(Cn5nnc6ccccc65)C(=O)[C@H]3N(C(C)CO)C(=O)[C@@H]4C2C(=O)O1 (some centres not stated) | composite z-score | -0.814
CN(C)CCCC[C@@H]1NC(=O)[C@@H]2C[C@H](C(=O)NCCCCCNC(=O)CS)[C@H](c3ccc(O)cc3)N2C1=O | composite z-score | 1.18
NC(=O)[C@H]1[C@@H]2C(=O)O[C@@H](c3ccccc3)[C@@H](c3ccccc3)N2[C@@H](c2ccc(O)cc2)[C@]12C(=O)Nc1ccc(C#CCCO)cc12 | composite z-score | -0.681
C#CCNC(/C=C/c1ccccc1)CO (configuration not stated) | composite z-score | 0.326
COc1cc(Cc2cc3c(c(CCc4ccccc4)n2)[Si](C(C)C)(C(C)C)OC3)cc(OC)c1OC | composite z-score | 0.499
CCCC/C=C/[C@H]([C@@H](O)Cc1ccccc1)N(CC#Cc1ccccc1)Cc1ccccc1Br | composite z-score | -1.55
C=C[C@H](OC)[C@@H](OC(=O)Nc1ccc(SC)cc1)c1ccc(OC)c(O)c1 | composite z-score | -1.4
COc1cc2c(cc1OC)CN(C(=O)[C@@H]1[C@H]3C(=O)O[C@H](c4ccccc4)[C@H](c4ccccc4)N3[C@H](c3ccccc3OCCO)[C@@]13C(=O)Nc1ccccc13)CC2 | composite z-score | 0.317
O=C(NCc1ccccc1)[C@@]1(Cc2ccccc2)COC(c2ccc(OCCCO)cc2)=N1 | composite z-score | -0.641
